# Test system: Wnt activity (Wnt-responsive Sp5 promoter-luciferase reporter in SW480 cells)
# procedure_summary: Wnt activity screening assay: Sp5-Luc reporter gene in SW480 colon carcinoma cells
# Type: cell-based
# measurement_parameters: Homo sapiens
measured_endpoint: pIC50
Numbers only, as −log10 of the molar value.

chemical_structure | pIC50
CC(C)Nc1cncc(-c2cc3c(-c4nc5c(-c6ccoc6)cncc5[nH]4)n[nH]c3cn2)c1 | 7.42
Fc1cccc(-c2cncc3[nH]c(-c4n[nH]c5cnc(-c6cncc(OCc7ccccc7)c6)cc45)nc23)c1 | 6.28
CC(C)Nc1cncc(-c2cc3c(-c4nc5c(-c6cccnc6)cncc5[nH]4)n[nH]c3cn2)c1 | 7.03
CCC(=O)Nc1cncc(-c2cc3c(-c4nc5c(N6CCCCC6)cncc5[nH]4)n[nH]c3cn2)c1 | 6.06
CC(C)(C)CC(=O)Nc1cncc(-c2cc3c(-c4nc5c(-c6ccccc6F)cncc5[nH]4)n[nH]c3cn2)c1 | 6.78

Q. Item: CCCCC(=O)Nc1cncc(-c2cc3c(-c4nc5c(-c6ccc(F)cc6)cncc5[nH]4)n[nH]c3cn2)c1 Test system: Wnt activity (Wnt-responsive Sp5 promoter-luciferase reporter in SW480 cells) Read-out: pIC50 Value: ?
A. 6.78

* * *

# System: primary human fibroblasts derived from IPF patients (LL29 cells)
# procedure_summary: Inhibition of fibrotic process: αSMA staining in TGF-β1-treated primary human fibroblasts from IPF patients (LL29 cells)
# Format: cell-based
# measurement_parameters: Fibroblast, 96 h, LL29 cells treated with TGF-β1 (20 ng/mL), 4 days, 11-point dose-response from 10 μM to 1.87 nM, read-out: Inhibition of fibrosis EC50
measured_endpoint: EC50 (nM)
One number for each entry, in nM.

chemical_structure | EC50 (nM)
NC1CN(c2cncc(-c3cc4c(-c5nc6c(-c7cccc(F)c7)cncc6[nH]5)n[nH]c4cn3)n2)C1 | 88

List reported EC50 for each of these compounds:
1. CCNCc1cncc(-c2cc3c(-c4nc5c(-c6ccccn6)cncc5[nH]4)n[nH]c3cn2)c1
2. CS(=O)(=O)NCc1cc(F)cc(-c2cncc3[nH]c(-c4n[nH]c5cnc(-c6cncc(NC(=O)C7CCC7)c6)cc45)nc23)c1

A.
598
475

Q. Reported EC50, compound CCC(=O)Nc1cncc(-c2cc3c(-c4nc5c(N6CCCCC6)cncc5[nH]4)n[nH]c3cn2)c1 : ____
A. 1560

* * *

# Test system: primary human fibroblasts derived from IPF patients (LL29 cells)
# procedure_summary: Inhibition of fibrotic process: αSMA staining in TGF-β1-treated primary human fibroblasts from IPF patients (LL29 cells)
# Assay type: cell-based
# measurement_parameters: Fibroblast, 96 h, LL29 cells treated with TGF-β1 (20 ng/mL), 4 days, 11-point dose-response from 10 μM to 1.87 nM, read-out: Inhibition of fibrosis EC50
# From the text: The above synthesized compounds were screened using primary human fibroblasts (derived from IPF patients) treated with TGF-β1 to determine their ability to inhibit the fibrotic process. […]
measured_endpoint: EC50

compound | test_target | EC50
Cc1ccncc1-c1cc2c(-c3nc4c(-c5ccncc5)cncc4[nH]3)n[nH]c2cn1 [Compound 109] | primary human fibroblasts derived from IPF patients (LL29 cells) | ≥ 9.99 µM
O=C(Nc1cncc(-c2cc3c(-c4nc5c(N6CCCCC6)cncc5[nH]4)n[nH]c3cn2)c1)C1CC1 [Compound 175] | primary human fibroblasts derived from IPF patients (LL29 cells) | ≤ 0.009 µM
CN(C)Cc1cncc(-c2cc3c(-c4nc5c(-c6cccc(F)c6)cncc5[nH]4)n[nH]c3cn2)c1 [Compound 13] | primary human fibroblasts derived from IPF patients (LL29 cells) | ≤ 0.009 µM

Switching to the query record.
Q. Reported EC50, compound CS(=O)(=O)NCc1cc(F)cc(-c2cncc3[nH]c(-c4n[nH]c5cnc(-c6cncc(NC(=O)c7ccccc7)c6)cc45)nc23)c1 [Compound 401] : ____
A. ≥ 9.99 µM

* * *

# Test system: Wnt activity (Wnt-responsive Sp5 promoter-luciferase reporter in SW480 cells)
# procedure_summary: Wnt activity screening assay: Sp5-Luc reporter gene in SW480 colon carcinoma cells
# Type: cell-based
# measurement_parameters: Homo sapiens
Exercise: for every item that follows, state its recorded IC50.

// solved cases for IC50 follow
chemical_structure | IC50
CN(C)c1cncc(-c2cc3c(-c4nc5c(-c6cccc(F)c6)cncc5[nH]4)n[nH]c3cn2)c1 | 71.8 nM
CN(C)Cc1cncc(-c2cc3c(-c4nc5c(N6CCCCC6)cncc5[nH]4)n[nH]c3cn2)c1 | 122 nM

Switching to the query record.
Q. Reported IC50, compound CC(C)CC(=O)Nc1cncc(-c2cc3c(-c4nc5c(-c6cccc(F)c6)cncc5[nH]4)n[nH]c3cn2)c1 : ____
A. 120 nM

* * *

# System: Wnt activity (Wnt-responsive Sp5 promoter-luciferase reporter in SW480 cells)
# procedure_summary: Wnt activity screening assay: Sp5-Luc reporter gene in SW480 colon carcinoma cells
# Type: cell-based
# measurement_parameters: Homo sapiens
Please use the following IC50 ranges when assigning a class: low band (below 40 nM), middle band (40 nM to below 200 nM), high band (200 nM or more)

The following compounds have reported results that may help.
compound | assigned_category
Fc1cccc(-c2cncc3[nH]c(-c4n[nH]c5cnc(-c6ccncc6)cc45)nc23)c1 [Compound 900] | middle band
Nc1cncc(-c2cc3c(-c4nc5c(-c6ccccc6F)cncc5[nH]4)n[nH]c3cn2)c1 [Compound 55] | middle band
O=C(Nc1cncc(-c2cc3c(-c4nc5c(-c6ccccc6F)cncc5[nH]4)n[nH]c3cn2)c1)C1CCCC1 [Compound 73] | middle band
CCCC(=O)Nc1cncc(-c2cc3c(-c4nc5c(-c6ccc(F)cc6)cncc5[nH]4)n[nH]c3cn2)c1 [Compound 43] | middle band
c1ccc(CNCc2cncc(-c3cc4c(-c5nc6c(-c7cccnc7)cncc6[nH]5)n[nH]c4cn3)c2)cc1 [Compound 101] | high band
CC(C)C(=O)Nc1cncc(-c2cc3c(-c4nc5c(-c6cccnc6)cncc5[nH]4)n[nH]c3cn2)c1 [Compound 87] | high band
CCCC(=O)Nc1cncc(-c2cc3c(-c4nc5c(-c6cc(F)cc(CNS(C)(=O)=O)c6)cncc5[nH]4)n[nH]c3cn2)c1 [Compound 407] | low band
CC(C)(C)C(=O)Nc1cncc(-c2cc3c(-c4nc5c(-c6ccc(F)s6)cncc5[nH]4)n[nH]c3cn2)c1 [Compound 320] | low band
c1cc(-c2cncc3[nH]c(-c4n[nH]c5cnc(-c6cncc(CNCC7CCCC7)c6)cc45)nc23)co1 [Compound 284] | high band
Cc1ccc(-c2cncc3[nH]c(-c4n[nH]c5cnc(-c6cncc(NC(=O)C(C)C)c6)cc45)nc23)s1 [Compound 347] | low band

Q. Lab log: c1ccc(CNCc2cncc(-c3cc4c(-c5nc6c(-c7ccsc7)cncc6[nH]5)n[nH]c4cn3)c2)cc1 [Compound 257] — assign IC50 category
A. high band

Q. Lab log: CC(C)CC(=O)Nc1cncc(-c2cc3c(-c4nc5c(-c6cc(F)cc(OCCN7CCCC7)c6)cncc5[nH]4)n[nH]c3cn2)c1 [Compound 1236] — assign IC50 category
A. high band

Q. Lab log: CCCC(=O)Nc1cncc(-c2cc3c(-c4nc5c(-c6ccc(C)s6)cncc5[nH]4)n[nH]c3cn2)c1 [Compound 355] — assign IC50 category
A. low band

Q. Lab log: CN1CCN(c2cncc3[nH]c(-c4n[nH]c5cnc(-c6cncc(NC(=O)C7CCCC7)c6)cc45)nc23)CC1 [Compound 229] — assign IC50 category
A. high band

* * *

# Test system: primary human fibroblasts derived from IPF patients (LL29 cells)
# procedure_summary: Inhibition of fibrotic process: αSMA staining in TGF-β1-treated primary human fibroblasts from IPF patients (LL29 cells)
# Format: cell-based
# measurement_parameters: Fibroblast, 96 h, LL29 cells treated with TGF-β1 (20 ng/mL), 4 days, 11-point dose-response from 10 μM to 1.87 nM, read-out: Inhibition of fibrosis EC50
pEC50: −log10 of the molar value.
measured_endpoint: pEC50

chemical_structure | test_target | pEC50
O=C(Nc1cncc(-c2cc3c(-c4nc5c(-c6cccs6)cncc5[nH]4)n[nH]c3cn2)c1)C1CC1 | primary human fibroblasts derived from IPF patients (LL29 cells) | < 5.00
Cn1cc(-c2cc3c(-c4nc5c(-c6cccc(F)c6)cncc5[nH]4)n[nH]c3cn2)cn1 | primary human fibroblasts derived from IPF patients (LL29 cells) | ≥ 8.05
COc1cc(F)cc(-c2cncc3[nH]c(-c4n[nH]c5cnc(-c6cncc(NC(=O)CC(C)C)c6)cc45)nc23)c1 | primary human fibroblasts derived from IPF patients (LL29 cells) | ≥ 8.05
CN(C)CCNc1cc(F)cc(-c2cncc3[nH]c(-c4n[nH]c5cnc(-c6cncc(CNCC7CCCC7)c6)cc45)nc23)c1 | primary human fibroblasts derived from IPF patients (LL29 cells) | ≥ 8.05
Fc1cccc(-c2cncc3[nH]c(-c4n[nH]c5cnc(C6CCNCC6)cc45)nc23)c1 | primary human fibroblasts derived from IPF patients (LL29 cells) | ≤ 5.00

Q. Item: CN(C)c1cncc(-c2cc3c(-c4nc5c(-c6cccc(F)c6)cncc5[nH]4)n[nH]c3cn2)c1 Test system: primary human fibroblasts derived from IPF patients (LL29 cells) Read-out: pEC50 Value: ?
A. ≥ 8.05
